B1: TPR 5TU (parent)
chain: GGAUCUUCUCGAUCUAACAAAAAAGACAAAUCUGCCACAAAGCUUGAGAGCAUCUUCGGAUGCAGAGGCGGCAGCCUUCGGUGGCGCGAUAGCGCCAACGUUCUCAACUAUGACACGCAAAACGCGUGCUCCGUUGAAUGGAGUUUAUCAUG

Variants of: B1
Experiment: polymerase ribozyme fitness, log enrichment relative to wild type (log ratio); higher = more active; in vitro selection for triplet polymerase activity
Fewer inactive variants are shown than the library holds.
assayReadout: polymerase ribozyme fitness (log ratio)

Some variants with known polymerase ribozyme fitness (log ratio) results, for comparison:
C14A A20C C27G: ≤ -4.2
A17G C75U C95U: 0.0451
C114U C123U: -2.17
U13G C51G A91C: ≤ -4.2
U56A G84U A89C A142U: -3.24

For each of the items listed, what is its polymerase ribozyme fitness (log ratio)?
1. A12C A16G A41C A121U
2. C36U C54A G58A G70A G84A C95A A115U G143U

Response:
-1.69
≤ -4.2
